Here the recorded pIC50 is given for each entry.
Target: 5-HT2C receptor (Homo sapiens (Human))
Sequence (P28335 33-458): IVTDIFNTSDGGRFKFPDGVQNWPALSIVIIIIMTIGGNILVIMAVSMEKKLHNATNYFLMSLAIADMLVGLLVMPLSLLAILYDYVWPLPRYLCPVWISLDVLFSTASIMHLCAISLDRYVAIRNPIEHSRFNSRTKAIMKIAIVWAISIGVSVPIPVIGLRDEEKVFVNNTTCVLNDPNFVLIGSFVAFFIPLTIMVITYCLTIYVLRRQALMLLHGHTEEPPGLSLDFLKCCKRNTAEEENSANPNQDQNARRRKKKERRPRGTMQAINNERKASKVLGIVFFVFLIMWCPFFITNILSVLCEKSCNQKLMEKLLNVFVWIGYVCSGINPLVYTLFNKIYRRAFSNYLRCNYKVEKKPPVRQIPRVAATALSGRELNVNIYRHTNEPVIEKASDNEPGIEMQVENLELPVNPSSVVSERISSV
Experiment: HTRF IP-One antagonist assay, 5-HT2C
Type: cell-based
Conditions: HEK293 cells stably expressing recombinant human receptor; IP accumulation with 80 nM 5-HT
pIC50: −log10 of the molar value.

| COMPOUND | pIC50 |
| --- | --- |
| Cc1nonc1C(=O)Nc1ccc(OC[C@H]2CCCCN2)c(-c2c(C)noc2C)c1 [Compound 232] | ≤ 4.00 |
| Cc1noc(C)c1-c1cc(NC(=O)c2ccc(F)cc2)ccc1OC[C@H]1CCCCN1 [Compound 219] | ≤ 4.00 |
| Cc1noc(C)c1-c1cc(NC(=O)C2CC2)ccc1OCCN1CCC(O)CC1 [Compound 146] | ≤ 4.00 |
| Cc1noc(C)c1-c1cc(NC(=O)C2(F)CC2)ccc1OCCN1CCC1 [Compound 117] | ≤ 4.00 |
| Cc1noc(C)c1-c1cc(NC(=O)Cc2cccc(F)c2)ccc1OC[C@H]1CCCCN1 [Compound 223] | ≤ 4.00 |
| Cc1noc(C)c1-c1cc(NC(=O)c2c(F)cnn2C)ccc1OC1CNC1 [Compound 240] | ≤ 4.00 |
| Cc1noc(C)c1-c1cc(NC(=O)Cc2ccns2)ccc1OC[C@H]1CCCCN1 [Compound 233] | ≤ 4.00 |
| Cc1noc(C)c1-c1cc(NC(=O)Cc2ccccc2)ccc1OC[C@H]1CCCCN1 [Compound 221] | ≤ 4.00 |
| Cc1noc(C)c1-c1cc(NC(=O)[C@H]2C[C@H]2F)ccc1OC[C@H]1CCCCN1 [Compound 191] | ≤ 4.00 |
| Cc1noc(C)c1-c1cc(NC(=O)C2(F)CC2)ccc1OCCN1CCCC1 [Compound 113] | ≤ 4.00 |
| COc1cccc(CC(=O)Nc2ccc(OC[C@H]3CCCCN3)c(-c3c(C)noc3C)c2)c1 [Compound 222] | ≤ 4.00 |
| Cc1noc(C)c1-c1cc(NC(=O)c2cccc(F)c2)ccc1OC1CNC1 [Compound 243] | 5.21 |
| Cc1nscc1C(=O)Nc1ccc(OC[C@H]2CCCCN2)c(-c2c(C)noc2C)c1 [Compound 187] | ≤ 4.00 |
| COc1cccc(C(=O)Nc2ccc(OC3CNC3)c(-c3c(C)noc3C)c2)c1 [Compound 244] | ≤ 4.00 |
| Cc1noc(C)c1-c1cc(NC(=O)c2ccccc2)ccc1OC1CNC1 [Compound 241] | ≤ 4.00 |
| Cc1noc(C)c1-c1cc(NC(=O)Cc2cnsc2)ccc1OC[C@H]1CCCCN1 [Compound 234] | ≤ 4.00 |
| Cc1ncoc1C(=O)Nc1ccc(OC[C@H]2CCCCN2)c(-c2c(C)noc2C)c1 [Compound 196] | ≤ 4.00 |
